method summary: Cytotoxicity against human HepG2 cells cultured under galactose condition assessed as reduction in cell viability
Format: toxicity, cell-based
recorded endpoint: pIC50
Would you please state pIC50, meaning minus log10 of the concentration in mol/L, as a bare number?

Can you share its pIC50? I mean this compound: COc1cc(F)c(O[C@H]2CC[C@@](C)(C(=O)O)CC2)cc1C(=O)N[C@H]1[C@@H]2CC[C@@H](C2)[C@H]1C(=O)Nc1ccc(F)c(S(F)(F)(F)(F)F)c1
3.91

Can you share its pIC50? I mean this compound: COc1cc(F)c(O[C@H]2CC[C@@](C)(C(=O)O)CC2)cc1C(=O)N[C@@H]1[C@H]2CC[C@H](C2)[C@@H]1C(=O)Nc1ccc(F)c(S(F)(F)(F)(F)F)c1
4.43
